test system: OVCAR-5 ovarian; assay: NCI-60 one-dose screen, 48 h (100 = growth as untreated, 0 = no growth, -100 = all killed); details: 10 µM unless noted
About 83,000 compounds went through this panel and 20% of them were active in at least one assay; those are over-represented in the sample as a whole.
PROPERTY: growth (%)
Write it as a number; the unit % goes unstated.

Worked cases, growth given:
Request: Missing value: growth, OVCAR-5 ovarian, entry "COc1ccc(Br)c(C=O)c1" . Fill in?
Result: 93.1

Request: Now the same for "CCCCOC(=O)c1ccccc1O"
Result: 101

Request: Now the same for "Cc1ccc(Cc2ccc(C)cc2)cc1"
Result: 99.1

Request: Now the same for "COc1cccc(C(=O)O)c1OC"
Result: 85.9

Request: Now the same for "CCOC(=O)N[C@H]1CCc2cc(OC)c(OC)c(OC)c2-c2ccc(SC)c(=O)cc21"
Result: 23.3

Request: Now the same for "CCCCc1ccc2nc(NC(=O)OC)[nH]c2c1"
Result: 23

Request: Now the same for "CCOc1ccc(C(=O)O)cc1"
Result: 105

Request: Now the same for "Cc1ccc2nc(-c3ccc(N=Cc4ccccc4O)cc3)sc2c1"
Result: 92.2

Others:
Request: Missing value: growth, OVCAR-5 ovarian, entry "CCCCN(C(=O)CC)c1ccccc1" . Fill in?
Result: 105

Request: Now the same for CCCC1OC(c2ccco2)OCC1CC (centres undefined)
Result: 100

Request: Now the same for O=C(O)C1CCCN1C(=O)OCc1ccccc1 (centres undefined)
Result: 105

Request: Now the same for "O=C1C=CC(=O)C2=C1CCCC2"
Result: 108

Request: Now the same for "CCC(=O)C1C(=O)c2ccccc2C1=O"
Result: 103

Request: Now the same for CC1CCC(C)(C)c2ccccc21 (centres undefined)
Result: 92.4

* * *

system: K-562 leukemia; assay: NCI-60 one-dose screen, 48 h (100 = growth as untreated, 0 = no growth, -100 = all killed); settings: 10 µM unless noted
About 83,000 compounds went through this panel and 20% of them were active in at least one assay; those are over-represented in the sample as a whole. Calls of active or inactive are those of the source. Rule for the calls: active = growth percent below 10; inactive = the rest.
PROPERTY: growth

Worked cases, growth given:
Request: Quick check: growth of "COC(=O)Cc1cc(COC(C)=O)ccc1C" ?
Result: 108% (inactive)

Request: Now the same for "Cc1c(Cl)cccc1NC(=S)NC(=O)c1ccccc1"
Result: 79.7% (inactive)

Request: Now the same for CC(=O)NC(O)C(Cl)Cl (configuration not stated)
Result: 84.3% (inactive)

Others:
Request: Quick check: growth of "O=Cc1ccc(O)c(O)c1" ?
Result: 103% (inactive)

Request: Now the same for COC1(OC)C2(Cl)C(Cl)=C(Cl)C1(Cl)C1COCC12 (configuration not stated)
Result: 97.3% (inactive)

Request: Now the same for "CCOC(=O)C1(N)CCCCC1"
Result: 116% (inactive)

Request: Now the same for C=C1CC2(OC1=O)C(=O)N(C)c1ccc(I)cc12 (configuration not stated)
Result: -50% (active)

Request: Now the same for "O=C1CSc2ccccc2N1"
Result: 122% (inactive)

* * *

test system: MCF7 breast; assay: NCI-60 one-dose screen, 48 h; details: 10 µM unless noted
The panel holds about 83,000 compounds, 20% with a hit somewhere; the sample as a whole holds those more often. Activity calls are given as the source filed them. The calls were made as follows: active = growth percent below 10; inactive = the rest.
Choose one outcome from this list and give only that: active, inactive

Worked cases, answers included:
Request: What was the test verdict on "O=Cc1ccc(Cl)c(Cl)c1" ?
Result: inactive

Request: Now the same for "NC(=O)c1cc2c3ccccc3ccn2c1-c1ccccc1"
Result: inactive

Request: Now the same for "Cc1ccc(S(=O)(=O)NC(=O)NCCSSCCNC(=O)NS(=O)(=O)c2ccc(C)cc2)cc1"
Result: inactive

Request: Now the same for "O=C(OC1CCCC1)c1ccccc1Cl"
Result: inactive

Request: Now the same for "Nc1ncc([N+](=O)[O-])cn1"
Result: inactive

Request: Now the same for "CSCC[C@@H]1C(=O)N(C)[C@H](C(C)(C)C)N1C(=O)c1ccccc1"
Result: inactive

Request: Now the same for "O=C(O)Cc1ccc(Cl)cc1"
Result: inactive

Request: Now the same for "Cc1cc(Nc2ccc3c(c2)OCO3)c2cc3c(cc2n1)OCO3"
Result: active

Others:
Request: What was the test verdict on OC(CBr)CCBr (stereo not drawn) ?
Result: inactive

Request: Now the same for "O=C(CCl)Nc1ccccc1SCc1cc(Cl)cc2c1OCOC2"
Result: inactive

Request: Now the same for COC(c1ccc2c(c1)OCO2)C(C)Br (stereo not drawn)
Result: inactive

Request: Now the same for COC1CC(OC(=O)c2ccc([N+](=O)[O-])cc2)C(COC(=O)c2ccc([N+](=O)[O-])cc2)O1 (stereo not drawn)
Result: inactive

Request: Now the same for "COc1ccc(C)cc1NC(=O)SC(C)C"
Result: inactive
